Below, each entry is listed alongside its reported IC50.
Target: UniProtKB O60341
Assay: LSD1 enzyme activity detection (HTRF)
Type: biochemical
Conditions: HTRF, H3K4me1 substrate; read-out: Inhibition of enzymatic activity of LSD1 IC50
Counter-ions that a name gives are not always drawn.
Measure: IC50 (nM)

> print(dat)
                                   compound  measure  unit.spec  experimental.result
1  COc1ccc(-c2cnc(N3CCC(C)(N)CC3)c(C#N)c2-c2ccc(C#N)c(F)c2)cc1O [Example 80, hydrochloride]     IC50         nM                    1
2  COc1ccc(-c2c(OC)cc(N3CCNCC3)nc2-c2ccc(C#N)c(F)c2)cc1O [Example 96, hydrochloride]     IC50         nM                    3
3  N#Cc1ccc(-c2nc(N3CCC(N)CC3)cc(O)c2-c2ccc(C#N)c(F)c2)cc1F [Example 48]     IC50         nM                 57.8
4  CC(C)(O)C#Cc1ccc(-c2c(-c3ccc(C#N)c(F)c3)nc(N3CCC(N)CC3)n3ccnc23)cc1F [Example 126, hydrochloride]     IC50         nM                 15.9

---

Target: LSD1 (Homo sapiens (Human))
Experiment: LSD1 enzyme activity detection (HTRF)
Type: biochemical
Conditions: HTRF, H3K4me1 substrate; read-out: Inhibition of enzymatic activity of LSD1 IC50
pIC50: −log10 of the molar value. Counter-ions that a name gives are not always drawn.
Measure: pIC50

> print(dat)
                                    compound  experimental.result
 1  N#Cc1ccc(-c2nc(N3CCC(N)CC3)n3ccnc3c2-c2ccc(N3CCOCC3)cc2)cc1F                 8.38
 2  N#Cc1ccc(-c2cc(C(=O)N3C4CCC3CC(N)C4)sc2-c2ccc3oc(=O)[nH]c3c2)cc1F (stereo not shown) [Example 214, hydrochloride]                 9.33
 3  Cc1ccc(-c2c(-c3ccc(C#N)c(F)c3)nc(N3CCC(N)CC3)c(C)c2O)cc1O [Example 65, hydrochloride]                 9.15
 4  Cc1noc2cc(-c3nc(CN[C@@H]4C[C@H]4c4ccc(F)cc4)cc(C(=O)N4CCN(S(C)(=O)=O)CC4)n3)c(F)cc12                 6.55
 5  COc1ccc(-c2c(O)cc(N3CCC(N)CC3)nc2-c2ccc(C#N)c(F)c2)cn1                 8.04
 6  CS(=O)(=O)N1CCN(C(=O)c2cc(CN[C@@H]3C[C@H]3c3ccc(F)cc3)nc(-c3ccc(F)c(O)c3)n2)CC1 [Example 238, hydrochloride]                 7.01
 7  COc1cc(N2CCC(N)CC2)nc(-c2ccc(C#N)c(F)c2)c1-c1ccc(C#N)c(F)c1                 7.60
 8  CN(CCCN)c1cc(O)c(-c2ccc(Cl)c(O)c2)c(-c2ccc(C#N)c(F)c2)n1                 7.58
 9  O=C(c1cc(CN[C@@H]2C[C@H]2c2ccc(F)cc2)nc(-c2ccc(N3CCOCC3)cc2)n1)N1CCOCC1 [Example 245, hydrochloride]                 7.41
10  N#Cc1ccc(-c2nc(N3CCC(N)CC3)n3ccnc3c2-c2ccc3[nH]nc(Cl)c3c2)cc1F                 7.54
11  Cc1noc2cc(-c3c(-c4ccc(C#N)c(F)c4)nc(N(C)CCCN)n4ccnc34)c(F)cc12                 7.69
12  COc1ccc(-c2c(O)cc(NC3CCNCC3)nc2-c2ccc(C#N)c(F)c2)cc1F                 6.55
13  Cc1noc2cc(-c3c(OCc4ccccc4)cc(N4C5CCC4CC(N)C5)nc3-c3ccc(C#N)c(F)c3)c(F)cc12 (stereo not shown)                 6.25
14  COc1ccc(-c2c(-c3ccc(C#N)c(C)c3)nc(N3C4CCC3CC(N)C4)n3ccnc23)cc1F (stereo not shown) [Example 184, hydrochloride]                 6.96
15  CN[C@@H]1CCCN(c2nccn3c(-c4ccc(C)cc4)c(-c4ccc(C#N)cc4)cc23)C1 [Example 189, hydrochloride]                 9.54
16  COc1ccc(-c2c(-c3ccc(C#N)c(F)c3)nc(N3C4CCC3CC(N)C4)n3ccnc23)cc1O (stereo not shown) [Example 155, hydrochloride]                 9.70
17  N#Cc1ccc(-c2c(-c3ccc(N4CCOCC4)c(O)c3)cnc(N3CCC(N)CC3)c2C#N)cc1F [Example 85, hydrochloride]                 9.22
18  Cc1ccc(-c2c(-c3ccc(C#N)cc3)cc3c(N4CCC(N)C4)nccn23)cc1 (stereo not shown) [Example 192, hydrochloride]                 7.97
19  COc1ccc(-c2nc(CN[C@@H]3C[C@H]3c3ccc(F)cc3)cc(C(=O)N3CCOCC3)n2)cc1O                 7.57
20  N#Cc1ccc(-c2nc(N3C4CCC3CC(N)C4)n3ccnc3c2-c2cc3c(cc2F)OCO3)cc1F (stereo not shown) [Example 175, hydrochloride]                 8.49
21  COc1ccc(-c2cnc(N3CC4CC3CC4N)c(C#N)c2-c2ccc(C#N)c(F)c2)cc1O (stereo not shown)                 8.72
22  O=C(c1cc(CN[C@@H]2C[C@H]2c2ccc(F)cc2)nc(-c2ccc(-n3cccn3)cc2)n1)N1CCOCC1                 7.89
23  COc1ccc(-c2c(-c3ccc(C#N)c(F)c3)nc(N3CCC(N)CC3)c(C)c2OC)cc1O                 9.00
24  N#Cc1ccc(-c2nc(N3CCC(N)CC3)cc(O)c2-c2ccc(N3CCOCC3)cc2)cc1F [Example 21, hydrochloride]                 7.98
25  COc1ccc(-c2c(-c3ccc(C#N)c(F)c3)nc(N3CC4CCC(C3)C4N)n3ccnc23)cc1O (stereo not shown) [Example 161, hydrochloride]                 8.41
26  COc1cc(F)c(-c2c(O)cc(N3CCC(N)CC3)nc2-c2ccc(C#N)c(F)c2)cc1F [Example 41, hydrochloride]                 7.66
27  COc1ccc(-c2c(OC(C)C)cc(N3CCC(N)CC3)nc2-c2ccc(C#N)c(F)c2)cc1O                 9.15
28  CS(=O)(=O)N1CCN(C(=O)c2cc(CN[C@@H]3C[C@H]3c3ccc(F)cc3)nc(-c3ccn4ccnc4c3)n2)CC1                 6.26

---

Molecular target: LSD1 (Homo sapiens (Human))
Assay: LSD1 enzyme activity detection (HTRF)
Type: biochemical
Details: HTRF, H3K4me1 substrate; read-out: Inhibition of enzymatic activity of LSD1 IC50
pIC50: −log10 of the molar value. Where a name gives a salt, the structure may show the parent alone.
Tick met if pIC50 is 8 or greater. Tick not met if pIC50 is less than 8.

> print(dat)
                                   compound  assigned.category
1  COc1ccc(-c2c(O)cc(N3CCC[C@@H](N)C3)nc2-c2ccc(C#N)c(F)c2)cc1F [Example 31, hydrochloride]            not met
2  COc1ccc(C#Cc2c(O)cc(N3CCC(N)CC3)nc2-c2ccc(C#N)c(F)c2)cc1F            not met
3  COc1ccc(-c2cnc(N3CCC[C@@H](N)C3)c(C#N)c2-c2ccc(C#N)c(F)c2)cc1O                met
4  Cc1ccc(-c2c(-c3ccc(C#N)c(F)c3)nc(N3CC4CC3CC4N)n3ccnc23)cc1O (stereo not shown) [Example 160, hydrochloride]                met

---

Target: LSD1 (Homo sapiens (Human), UniProt O60341)
Experiment: LSD1 enzyme activity detection (HTRF)
Type: biochemical
Details: HTRF, H3K4me1 substrate; read-out: Inhibition of enzymatic activity of LSD1 IC50
Structures can show the parent of a compound that is named as a salt.
Below, each entry is listed alongside its reported log10(IC50).
Measure: log10(IC50) (log10 of the value in nM)

> print(dat)
                                    molecule  experimental.result
 1  N#Cc1ccc(-c2nc(N3CCC(N)CC3)n3ccnc3c2-c2ccc(OC(F)(F)F)c(F)c2)cc1F                 1.03
 2  COc1ccc(-c2c(OC)cc(N3CCC(N)CC3)nc2-c2ccc(C#N)c(F)c2)cc1F                 0.45
 3  Cc1noc2cc(-c3c(-c4ccc(C#N)c(F)c4)nc(N4CCC(N)CC4)c4ncoc34)c(F)cc12                 0.36
 4  COc1ccc(-c2cnc(N3CCC(N)C(F)C3)c(C#N)c2-c2ccc(C#N)c(F)c2)cc1O (stereo not shown)                 0.38
 5  COc1cc(N2CCN(C)CC2)nc(-c2ccc(C#N)c(F)c2)c1-c1ccc(C)c(O)c1                 0.95
 6  COc1ccc(-c2c(C3CCC(C#N)CC3)nc(N3C4CCC3CC(N)C4)n3ccnc23)cc1F (stereo not shown) [Example 179, hydrochloride]                 2.97
 7  Cc1noc2cc(-c3sc(C(=O)N4C5CCC4CC(N)C5)cc3-c3ccccn3)c(F)cc12 (stereo not shown)                 3.74
 8  Cc1ccc(-c2cnc(N3CCC(N)CC3)c(C#N)c2-c2ccc(C#N)c(F)c2)cc1O [Example 67, hydrochloride]                -0.70
 9  COc1ccc(-c2c(-c3ccc(C#N)c(F)c3)nc(N3CCC(N)CC3)n3ccnc23)cc1C#N                 0.98
10  Cc1noc2cc(-c3sc(C(=O)N4C5CCC4CC(N)C5)nc3-c3ccc(C#N)c(F)c3)c(F)cc12 (stereo not shown) [Example 220, hydrochloride]                -0.38
11  Cn1ccc2cc(F)c(-c3c(-c4ccc(C#N)c(F)c4)nc(N4C5CCC4CC(N)C5)n4ccnc34)cc21 (stereo not shown)                 1.12
12  Cc1noc2cc(-c3sc(C(=O)N4C5CCC4CC(N)C5)cc3-c3ccncc3)c(F)cc12 (stereo not shown) [Example 204, hydrochloride]                 1.09
13  CS(=O)(=O)N1CCN(C(=O)c2cc(CN[C@@H]3C[C@H]3c3ccc(F)cc3)nc(-c3ccc(-c4ccn[nH]4)cc3)n2)CC1                 1.30
14  Cc1ccc(-c2c(-c3ccc(C#N)c(F)c3)nc(N3CC4CCC3CC4N)n3ccnc23)cc1O (stereo not shown)                -0.30
15  COc1ccc(-c2c(OCC3CC3)cc(N3CCC(N)CC3)nc2-c2ccc(C#N)c(F)c2)cc1O [Example 108, hydrochloride]                 0.18
16  COc1ccc(-c2c(-c3ccc(C#N)c(F)c3)nc(N3CCC(N)CC3)n3c(C)cnc23)cc1O                -0.10
17  COc1ccc(-c2c(-c3ccc(C#N)c(F)c3)nc(N3CC4CC3CC4N)n3ccnc23)cc1O (stereo not shown) [Example 164, hydrochloride]                -0.40
18  Cc1noc2cc(-c3c(-c4ccc(C#N)c(F)c4)nc(N4CCC(N)CC4)c4[nH]ncc34)c(F)cc12 [Example 288, hydrochloride]                -0.23
19  Cc1noc2cc(-c3cnc(N4CCC(N)CC4)c(C#N)c3-c3ccc(C#N)c(F)c3)c(F)cc12                -0.52
20  N#Cc1ccc(-c2cc(C(=O)N3C4CCC3CC(N)C4)sc2-c2ccncn2)cc1F (stereo not shown) [Example 202, hydrochloride]                 1.89
21  Cc1noc2cc(-c3c(-c4ccc(C#N)c(F)c4)nc(N4CCC(N)CC4)n4ccnc34)c(F)cc12                -0.46
22  CC(C)(O)Cc1ccc(-c2c(O)cc(N3CCC(N)CC3)nc2-c2ccc(C#N)c(F)c2)cc1F [Example 39, hydrochloride]                 1.33
23  Cc1noc2cc(-c3c(O)cc(N4CCC(N)CC4)nc3-c3ccc(C#N)c(F)c3)c(F)cc12                 0.56
24  O=C(O)C1CCN(C(=O)c2cc(CN[C@@H]3C[C@H]3c3ccc(F)cc3)nc(-c3ccc(-n4cccn4)cc3)n2)CC1                 2.22
25  COc1ccc(-c2c(-c3ccc(C#N)c(F)c3)nc(N3CC4CCC3CC4N)n3ccnc23)cc1F (stereo not shown) [Example 170, hydrochloride]                 1.12
26  CS(=O)(=O)N1CCN(C(=O)c2cc(CN[C@@H]3C[C@H]3c3ccc(F)cc3)nc(-c3ccc(N4CCOCC4)cc3)n2)CC1                 1.63
27  O=C(c1cc(CN[C@@H]2C[C@H]2c2ccc(F)cc2)nc(-c2ccc(-n3ccnn3)cc2)n1)N1CCC(F)(F)CC1                 2.15
28  O=C(NC1CCOCC1)c1cc(CN[C@@H]2C[C@H]2c2ccc(F)cc2)nc(-c2ccc(-n3ccnn3)cc2)n1                 1.20
